Molecular target: BACE1 in primary mouse cortical neurons (mouse, UniProt P56818 46-501)
Sequence (P56818 46-501): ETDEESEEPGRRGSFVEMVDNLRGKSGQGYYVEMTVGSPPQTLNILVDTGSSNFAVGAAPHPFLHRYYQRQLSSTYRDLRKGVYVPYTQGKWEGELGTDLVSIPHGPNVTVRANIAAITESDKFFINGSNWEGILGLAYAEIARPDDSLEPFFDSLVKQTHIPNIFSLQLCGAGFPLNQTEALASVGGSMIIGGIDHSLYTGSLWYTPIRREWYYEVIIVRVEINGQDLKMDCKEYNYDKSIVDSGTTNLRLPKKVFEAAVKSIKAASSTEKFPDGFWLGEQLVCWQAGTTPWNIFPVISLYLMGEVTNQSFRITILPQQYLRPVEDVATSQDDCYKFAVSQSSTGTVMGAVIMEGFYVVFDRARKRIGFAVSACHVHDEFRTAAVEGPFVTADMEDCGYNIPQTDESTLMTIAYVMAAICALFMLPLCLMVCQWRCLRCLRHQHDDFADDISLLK
Experiment: cell-based or functional assay
Threshold 3 nM: IC50, Abeta x-40 in mouse cortical neurons strictly smaller gives true (1), otherwise false (0).

6313 (antibody, V domains shown, anti-BACE1 IgG) VH: QLQLQESGPGLVKPSETLSLTCTVSGGSISRGSYYWGWIRQPPGKGLEWIGMIYYSGSTWYNPSLKSRVTISVDTSKNQFSLKLSSVTAADTAVYYCARVGHGVSYFDLWGRGTLVTVSS VL: EIVLTQSPATLSLSPGERATLSCRASQSVSSYLAWYQQKPGQAPRLLIYDASNRATGIPARFSGSGSGTDFTLTISSLEPEDFAVYYCQQAYVWPPRTFGGGTKVEIK : true (1)
6311 (antibody, V domains shown, anti-BACE1 IgG) VH: QLQLQESGPGLVKPSETLSLTCTVSGGSISWSSYYWSWIRQPPGKGLEWIGSIYRSGRTYYNPSLKSRVTISVDTSKNQFSLKLSSVTAADTAVYYCARVGHGINYFDLWGRGTLVTVSS VL: EIVLTQSPATLSLSPGERATLSCRASQSVSSYLAWYQQKPGQAPRLLIYDASNRATGIPARFSGSGSGTDFTLTISSLEPEDFAVYYCQQSLTWPPRTFGGGTKVEIK : true (1)
6308 (antibody, V domains shown, anti-BACE1 IgG) VH: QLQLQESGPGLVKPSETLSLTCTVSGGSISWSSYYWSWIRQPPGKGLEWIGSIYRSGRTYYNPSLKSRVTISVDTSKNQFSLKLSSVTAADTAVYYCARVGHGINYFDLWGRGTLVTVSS VL: EIVLTQSPATLSLSPGERATLSCRASQSVSSYLAWYQQKPGQAPRLLIYDASKRATGIPARFSGSGSGTDFTLTISSLEPEDFAVYYCQQSLVWPPRTFGGGTKVEIK : true (1)
6305 (antibody, V domains shown, anti-BACE1 IgG) VH: QVQLVQSGAEVKKPGSSVKVSCKASGGTLSGYAISWVRQAPGQGLEWMGNIIPGFGTANYAQKSQGRVTITADESTSTAYMELSSLRSEDTAVYYCARSGGTRYGMLDVWGQGTMVTVSS VL: EIVLTQSPATLSVSPGERATLSCRASQSVGSNLAWYQQKPGQAPRLLIYGASTRATGIPARFSGSGSGTEFTLTISSLQSEDFAVYYCQQSFVWPPRTFGGGTKVEIK : false (0)
6299 (antibody, V domains shown, anti-BACE1 IgG) VH: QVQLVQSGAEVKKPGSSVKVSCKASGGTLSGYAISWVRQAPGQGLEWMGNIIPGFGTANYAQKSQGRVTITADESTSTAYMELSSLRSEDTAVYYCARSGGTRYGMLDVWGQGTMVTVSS VL: EIVMTQSPATLSVSPGERATLSCRASQSVGSNLAWYQQKPGQAPRLLIYGASTRATGIPARFSGSGSGTEFTLTISSLQSEDFAVYYCQQSYLWPPRTFGGGTKVEIK : false (0)
6310 (antibody, V domains shown, anti-BACE1 IgG) VH: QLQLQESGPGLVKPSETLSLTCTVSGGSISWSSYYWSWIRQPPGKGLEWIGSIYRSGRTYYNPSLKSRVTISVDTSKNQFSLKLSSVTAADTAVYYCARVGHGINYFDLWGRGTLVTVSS VL: EIVLTQSPATLSLSPGERATLSCRASQSVSSYLAWYQQKPGQAPRLLIYDASNRATGIPARFSGSGSGTDFTLTISSLEPEDFAVYYCQQSVTWPPRTFGGGTKVEIK : true (1)

Ask: Hello, I'm reviewing records and need to know if IC50, Abeta x-40 in mouse cortical neurons of 6300 (antibody, V domains shown, anti-BACE1 IgG) VH: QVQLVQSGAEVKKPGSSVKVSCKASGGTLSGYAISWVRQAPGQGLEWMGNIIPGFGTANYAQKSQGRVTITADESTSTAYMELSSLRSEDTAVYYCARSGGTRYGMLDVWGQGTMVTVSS VL: EIVLTQSPATLSVSPGERATLSCRASQSVGSNLAWYQQKPGQAPRLLIYGASTRATGIPARFSGSGSGTEFTLTISSLQSEDFAVYYCQQSFLWPPRTFGGGTKVEIK is below 3 nM. Could you check?
Reply: false (0)

Ask: Hello, I'm reviewing records and need to know if IC50, Abeta x-40 in mouse cortical neurons of 6309 (antibody, V domains shown, anti-BACE1 IgG) VH: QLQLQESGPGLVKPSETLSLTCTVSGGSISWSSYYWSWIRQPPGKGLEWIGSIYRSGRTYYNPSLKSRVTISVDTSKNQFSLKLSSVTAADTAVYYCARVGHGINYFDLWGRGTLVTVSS VL: EIVLTQSPATLSLSPGERATLSCRASQSVSSYLAWYQQKPGQAPRLLIYDASNRATGIPARFSGSGSGTDFTLTISSLEPEDFAVYYCQQSITWPPRTFGGGTKVEIK is below 3 nM. Could you check?
Reply: true (1)

Ask: Hello, I'm reviewing records and need to know if IC50, Abeta x-40 in mouse cortical neurons of 6314 (antibody, V domains shown, anti-BACE1 IgG) VH: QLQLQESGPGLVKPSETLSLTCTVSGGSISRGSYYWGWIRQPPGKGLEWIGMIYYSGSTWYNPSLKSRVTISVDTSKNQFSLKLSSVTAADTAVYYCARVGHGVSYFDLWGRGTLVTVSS VL: EIVLTQSPATLSLSPGERATLSCRASQSVSSYLAWYQQKPGQAPRLLIYDASNRATGIPARFSGSGSGTDFTLTISSLEPEDFAVYYCQQSIVWPPRTFGGGTKVEIK is below 3 nM. Could you check?
Reply: false (0)
